// provenance: patent US9868746B2

system tested: mAChR M4 (Homo sapiens, UniProt P08173)
Construct: expressed in transfected cells; host or cells: CHO-K1 cells stably transfected with M4 cDNA and chimeric G-protein Gqi5
Sequence (P08173 whole entry): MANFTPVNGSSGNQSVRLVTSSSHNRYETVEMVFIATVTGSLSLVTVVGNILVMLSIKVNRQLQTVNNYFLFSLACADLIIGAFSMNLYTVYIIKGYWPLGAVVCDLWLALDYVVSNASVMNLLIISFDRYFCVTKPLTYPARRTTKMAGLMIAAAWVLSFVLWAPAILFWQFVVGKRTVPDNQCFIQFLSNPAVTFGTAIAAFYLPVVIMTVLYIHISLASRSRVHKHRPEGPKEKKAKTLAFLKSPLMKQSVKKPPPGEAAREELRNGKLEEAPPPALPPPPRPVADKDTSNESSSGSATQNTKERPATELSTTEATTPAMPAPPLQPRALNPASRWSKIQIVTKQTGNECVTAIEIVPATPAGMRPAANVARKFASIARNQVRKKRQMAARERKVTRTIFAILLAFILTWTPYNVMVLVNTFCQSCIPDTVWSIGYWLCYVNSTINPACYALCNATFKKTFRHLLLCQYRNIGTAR
assay protocol: mAChR M4 cell-based functional assay (calcium mobilization, potentiation of EC20 acetylcholine response)
condition set: % ACh maximum at 30 μM
measured endpoint: Emax (%)*
Please append the unit to your numeric answer.

Enter measured Emax (%)*, system mAChR M4 (Homo sapiens, UniProt P08173), for the molecule shown: Cc1nnc2sc(C(=O)NCCNC(=O)Oc3ccccc3)c(N)c2c1C [Example B374]
33%

Answer briefly: Emax (%)* recorded on mAChR M4 (Homo sapiens, UniProt P08173) for Cc1nnc2sc(C(=O)NCc3ccc([S+]([O-])C(F)F)cc3)c(N)c2c1C (single isomer, unassigned)
70%

Fill in Emax (%)* for Cc1nnc2sc(C(=O)NCc3ccc(C(C)(O)C(F)(F)F)cc3)c(N)c2c1C (single isomer, unassigned) tested with mAChR M4 (Homo sapiens, UniProt P08173).
84%

# lookup: mAChR M4 (Homo sapiens, UniProt P08173) Emax (%)*, key = Cc1nnc2sc(C(=O)NCCNC(=O)Oc3ccccc3)c(N)c2c1C [Example B354]
73%
